Experimental target: T1, HLA-A*02:01 (human)
T1 construct: MHC class I monomer of the UV-ligand exchange assay; also called peptide-receptive MHC molecules; MHC class I
Assay overview: UV peptide-exchange ELISA
Attribute: peptide exchange yield

Below, 4 binders whose answers are already recorded.
YTLDSLYWSV = 50 to 75%
TLDTSKLYV = 50 to 75%
MTAGFSTIAGSV = 10 to 20%
SIVASLITV = 50 to 75%

Request the reported peptide exchange yield associated with `ALTKTNLQL`
50 to 75%

Consider the binder shown here: `SLAGGLDDMKA` What is its recorded peptide exchange yield?
50 to 75%
